test system: Fibroblast; assay: Multiplex assay against human fibroblast; format: toxicity, cell-based; settings: 12 h, 10 µM, compound concentration 10 uM, replicate 2
readout kind: Population Normal (%)
Output spec: scalar in %, unitless text.

Cl.NC[C@@H]1O[C@H](C23CC4CC(CC(C4)C2)C3)Cc2c1ccc(O)c2O :: 89
CC(Cc1ccc(O)c(O)c1)C(C)Cc1ccc(O)c(O)c1 (stereo not drawn) [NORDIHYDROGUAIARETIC ACID] :: 93
Cc1ccc(NC(=O)Nc2cc(C(F)(F)F)ccc2F)cc1Nc1ccc2c(c1)NC(=O)/C2=C\c1ccc[nH]1 :: 80
CN1C(=O)[C@@H](NC(=O)c2cc3ccccc3[nH]2)N=C(c2ccccc2)c2ccccc21 [DEVAZEPIDE] :: 92
CCCc1cc(C)[nH]c(=O)c1CNC(=O)c1cc(-c2ccc(N3CCN(C(C)C)CC3)nc2)cc2c1cnn2C(C)C :: 94
CC(/C=C1\SC(=S)N(CCCC(=O)Nc2ccc(C(=O)O)c(O)c2)C1=O)=C\c1ccccc1 :: 92

Here is the next item to consider.
Input: Which Population Normal (%) reading was recorded for the compound `N#Cc1cccc(C(=O)Nc2cc(-c3ccccc3)nn2-c2ccccc2)c1` ?
Output: 90

----------
test system: HEK-293T; assay: Multiplex assay against HEK293T; type: toxicity, cell-based; details: human, 24 h, 10 µM, compound concentration 10 uM, replicate 2
Recorded Total Cell Count, one value per entry.
I only need the number, thanks.

For orientation, consider the following solved cases.
N#Cc1cccc(C(=O)Nc2cc(-c3ccccc3)nn2-c2ccccc2)c1 :: 167
Cc1c(P(=S)(c2ccccc2)c2ccccc2)n2ccccc2[n+]1C/C=C/c1ccccc1.[Br-] :: 195
CN(c1cc(C(F)(F)F)nc(OCCC(=O)O)n1)c1cccc2c1CCC2 :: 291
CCCCCNC(=N)N/N=C/c1c[nH]c2ccc(OC)cc12.O=C(O)/C=C\C(=O)O [TEGASEROD MALEATE] :: 89
c1ccc(-c2oc3ncnc(NC[C@@H]4CCCO4)c3c2-c2ccccc2)cc1 :: 222
CC(C)C[C@H](NC(=O)[C@H](Cc1ccccc1)NC(=O)CNC(=O)CNC(=O)[C@@H](N)Cc1ccc(O)cc1)C(=O)O :: 374

Input: Reported Total Cell Count, molecule `NC(=O)c1ccc2nc(-c3ccc(C4(N)CCC4)cc3)c(-c3ccccc3)n2n1` : ____
Output: 3086

Input: Form field: reported Total Cell Count of `CCOc1ccn(-c2ccc(F)cc2)c(=O)c1C(=O)Nc1ccc(Oc2ccnc(N)c2Cl)c(F)c1`
Output: 2353

Input: Look at this molecule and give its reported Total Cell Count. `Cc1ccc(S(=O)(=O)NC2c3ccccc3Oc3ccccc32)cc1`
Output: 283

Input: Look at this molecule and give its reported Total Cell Count. `N#CCNC(=O)c1ccc(-c2ccnc(Nc3ccc(N4CCOCC4)cc3)n2)cc1`
Output: 239

Input: Any idea what Total Cell Count was measured for `CC(/C=C1\SC(=S)N(CCCC(=O)Nc2ccc(C(=O)O)c(O)c2)C1=O)=C\c1ccccc1` ?
Output: 356

Input: Look up Total Cell Count: `CC[C@@H]1C(=O)N(C)c2cnc(Nc3ccc(C(=O)NC4CCN(C)CC4)cc3OC)nc2N1C1CCCC1`
Output: 1005

----------
system: Fibroblast; assay: Multiplex assay against human fibroblast; type: toxicity, cell-based; conditions: 12 h, 1 µM, compound concentration 1 uM, replicate 2
Hi all, reminder that labels come from Population Tubulin-Different-Phenotype (%), split as band A = under 10%, band B = from 10% up to 30%, band C = 30% and over

CN(c1cc(C(F)(F)F)nc(OCCC(=O)O)n1)c1cccc2c1CCC2 :: band B

Input: Input `CCOC(=O)CCNc1cc(N2CCc3ccccc3CC2)nc(-c2ccccn2)n1` ; output its category
Output: band B

Input: Hi, small favor: classify `Cc1c(Nc2ccc(S(=O)(=O)N3CCN(C)CC3)cc2F)nc2ccc(-c3cnn(C4CC4)c3)cn2c1=O` by its Population Tubulin-Different-Phenotype (%) when you get a moment.
Output: band A

Input: Just checking, what class would you give `Cc1ccc(S(=O)(=O)NC2c3ccccc3Oc3ccccc32)cc1` here?
Output: band A

Input: Which category does the recorded Population Tubulin-Different-Phenotype (%) put `N#Cc1cccc(C(=O)Nc2cc(-c3ccccc3)nn2-c2ccccc2)c1` in?
Output: band B

Input: Lab note: which band did `CC[C@@H]1C(=O)N(C)c2cnc(Nc3ccc(C(=O)NC4CCN(C)CC4)cc3OC)nc2N1C1CCCC1` land in?
Output: band A

Input: Exam item: assign `CC(C)C[C@H](NC(=O)[C@H](Cc1ccccc1)NC(=O)CNC(=O)CNC(=O)[C@@H](N)Cc1ccc(O)cc1)C(=O)O` to the correct category.
Output: band C

Input: Please classify: `CC(C)[C@H](CO)Nc1nc(Nc2cccc(Cl)c2)c2ncn(C(C)C)c2n1`
Output: band B

Input: Record `CCCCN(CC)c1nc(C)nc2c1c(C)cn2-c1c(C)cc(C)cc1C.Cl` — which class?
Output: band B

Input: // bin(item) where item = `Cc1c(Nc2ccc(S(=O)(=O)N3CCN(C)CC3)cc2F)nc2ccc(Nc3cnn(C4CC4)c3)cn2c1=O`
Output: band C

Input: Please report the category associated with `Cc1ccc(NC(=O)Nc2cc(C(F)(F)F)ccc2F)cc1Nc1ccc2c(c1)NC(=O)/C2=C\c1ccc[nH]1` , nothing else.
Output: band C
